# Method Notes: protein stability index of a GFP-peptide fusion (GPS, HEK-293T) (PSI 1-6); higher = more stable;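 further: 24-mer peptide tiles fused after GFP, lentivirally expressed, FACS-sorted into six equal bins by GFP/DsRed ratio, decoded by Illumina sequencing, PSI is the read-weighted mean bin number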
# Test Parameters: treatment: MLN4924 1 uM, 8 h; c terminus: a fixed tail appended
Parameter protein stability index: see the listing below.
I'd appreciate a reply containing only the number, no unit.

Record excerpt, results attached:
[
  {
    "Item Sequence": "MIRKGGDQTSLLVVDKETDNMYRL [PDZK1]",
    "protein stability index": 3.17
  },
  {
    "Item Sequence": "ENRALQQLLEQKQAYWAQAEDTAA [CBY2]",
    "protein stability index": 4.4
  },
  {
    "Item Sequence": "DDAVAGDFALINKLDIQCDLKTLS [ATE1]",
    "protein stability index": 4
  }
]

Ask | Which protein stability index is listed for CQSVLEDFNLCLFYLPSSPNLSLA [SMG5] ?
Reply | 2.72

Ask | State the recorded protein stability index for this entry: IFEGNSEKEIPVLNELPVPMVARY [CPXM2]
Reply | 3.37

Ask | For DEMQEVPNRVLAPEQSLKKTKTSE [SPANXN3] , what is its reported protein stability index?
Reply | 5.59

Ask | # query: protein stability index of entry LKSDLEKASALNTKIRALQGSLEN [CD207]
Reply | 3.73

Ask | Given the entry EAVFGKYGRIVEVLLMKDRETNKS [RBMX] , report its measured protein stability index.
Reply | 2.85

Ask | Which protein stability index reading was recorded for the sequence VDPIGHVYIFATCLGLSYDGLLGD [MAGEA6] ?
Reply | 3.1

Ask | Given RKEMATILSKMPKPKPPPNSEGEQ [CCNC] , state its recorded protein stability index.
Reply | 5.06

Ask | Please look up its protein stability index: LRHLSPTPSEEHMKNKNNVTEFIL [OR4A15]
Reply | 3.36

Ask | Fill in: protein stability index of DPPSSSEECPAHLLEDPLCADVIL [RHOBTB2] is ___
Reply | 5.11

Ask | Item under review: PEEFSLLKLQTKDGHRPEWTFYPR [SPATS1] . Reported protein stability index?
Reply | 2.87
